- Protocol Notes: Photophysical parameters of fluorophores in glycerol
- Assay type: physicochemical
- Test Settings: maximum absorbance measured in glycerol
List of λabs values.
Observed Property: λabs (nm)

> print(dat)
                                  structure  observed.property  unit  endpoint.value
1  CN(C)c1ccc(/C=C2N=C(/C=C/c3ccc(N(CCO)CCO)cc3)N(CC(=O)N[C@H]3CC[C@H](C(=O)NCCOCCOCCCCCCCl)CC3)C\2=O)cc1               λabs    nm             534
2  CN(C)c1ccc(/C=C2N=C(/C=C/c3ccccc3)N(CC(=O)OC(C)(C)C)C\2=O)cc1               λabs    nm             533
3  CC1=N/C(=C\c2ccc(O)cc2)C(=O)N1CC(=O)OC(C)(C)C               λabs    nm             376
4  CC1=N/C(=C\c2ccc(N(C)C)cc2)C(=O)N1CC(=O)OC(C)(C)C               λabs    nm             452
5  CN(C)c1ccc(/C=C/C2=NC(=C\c3ccccc3)/C(=O)N2CC(=O)OC(C)(C)C)cc1               λabs    nm             500
6  CN(C)c1ccc(/C=C2N=C(/C=C/c3ccc(N(C)C)cc3)N(CC(=O)OC(C)(C)C)C\2=O)cc1               λabs    nm             530

---

- Protocol Notes: Photophysical parameters of fluorophores in glycerol
- Assay type: physicochemical
- Test Settings: in glycerol
Param label: returns yes when Φ (quantum yield) < 0.2, returns no otherwise, including exact equality.

> print(dat)
                                   molecule  class.name
1  CN(C)c1ccc(/C=C/C2=NC(=C\c3ccccc3)/C(=O)N2CC(=O)OC(C)(C)C)cc1 [Compound 3a]         yes
2  CC1=N/C(=C\c2ccc(N(C)C)cc2)C(=O)N1CC(=O)OC(C)(C)C [Compound 2]         yes
3  CN(C)c1ccc(/C=C2N=C(/C=C/c3ccccc3)N(CC(=O)OC(C)(C)C)C\2=O)cc1 [Compound 3b]          no
4  CN(C)c1ccc(/C=C2N=C(/C=C/c3ccc(N(CCO)CCO)cc3)N(CC(=O)N[C@H]3CC[C@H](C(=O)NCCOCCOCCCCCCCl)CC3)C\2=O)cc1 [Compound 4]          no
5  CC1=N/C(=C\c2ccc(O)cc2)C(=O)N1CC(=O)OC(C)(C)C [Compound 1]         yes
